# Tested on: HepG2-GM130-SQSTM1
# test.method.notes: phenotypically active (imaging signature differs from DMSO and reproducible) at any of 0.3-9 uM (binary (1 = active, 0 = inactive)); higher = active
# experimental.parameters: treatment time: 24 h
Counter-ions that a name gives are not always drawn.
Allowed answers: 1 (yes) (active), 0 (no) (inactive)

The following compounds have reported results that may help.
Look up the recorded call for `C#CCN(C)[C@H](C)Cc1ccccc1` in this test. 0 (no)

Tell me the assay call for CC[C@H]1CN2CCC1C[C@H]2[C@H](O)c1ccnc2ccc(OC)cc12 (stereo partly specified) [Hydroquinine hydrobromide hydrate] please. 0 (no)

Assay result, entry CN1C[C@H](C(=O)N[C@]2(C)O[C@@]3(O)[C@@H]4CCCN4C(=O)[C@H](Cc4ccccc4)N3C2=O)C[C@@H]2c3cccc4[nH]cc(c34)C[C@H]21.CN1C[C@H](C(=O)N[C@]2(C)O[C@@]3(O)[C@@H]4CCCN4C(=O)[C@H](Cc4ccccc4)N3C2=O)C[C@@H]2c3cccc4[nH]cc(c34)C[C@H]21 [dihydroergotamine] — outcome? 1 (yes)

Next:
# fetch the recorded call for `COc1cc(C(=O)O[C@H]2C[C@H]3CC[C@@H](C2)N3C)ccc1O` here 0 (no)

Name the outcome recorded for `OCC[N+]12CN3CN(CN(C3)C1)C2` in the assay. 0 (no)

In this assay, the call recorded for O=c1cccc2n1C[C@H]1CNC[C@H]2C1 [Cytisine nitrate hydrate] was what? 0 (no)

====

# Test system: A549-TUBA1B-RELA
# test.method.notes: phenotypically active (imaging signature differs from DMSO and reproducible) at any of 0.3-9 uM (binary (1 = active, 0 = inactive)); higher = active
# experimental.parameters: treatment time: 24 h
Structures can show the parent of a compound that is named as a salt.
Reply using exactly one outcome from t for active, f for inactive

Could you check what this test reported for `CCN1C[C@@]2(COC)C3[C@@H](OC)[C@H]4[C@H]1C3([C@@H]1C[C@@]3(O)[C@H](OC(=O)c5ccccc5)[C@@H]1[C@]4(OC(C)=O)[C@@H](O)[C@@H]3OC)[C@H](OC)C[C@H]2O` ? f

Would you mind telling me which call this test gave CN1C(CC(O)c2ccccc2)CCCC1CC(O)c1ccccc1 (stereo not drawn) [Lobelanidine hydrochloride] ? f

Lab log entry: O=P1(NCCCl)OCCCN1CCCl (stereo not drawn) [ifosfamide] — outcome as called in the assay? f

Answer briefly: the call reported for CC[C@H]1CN2CC[C@H]1C[C@@H]2[C@@H](O)c1ccnc2ccc(OC)cc12 [Hydroquinidine HCl] in this assay. t

For c1cncc(C2CC3CCN2CC3)c1 (stereo not drawn) [RJR 2429 dihydrochloride] , which call appears in the assay record? f

Continuing:
// return assay outcome for `COc1ccc(C[C@H]2NC[C@H](O)[C@H]2OC(C)=O)cc1` t

Dear all, I need the recorded test outcome for Cc1c(C(=O)c2cccc3ccccc23)c2cccc3c2n1[C@H](CN1CCOCC1)CO3 [WIN 55,212-2 mesylate] , thank you. f

Please let me know the test result on file for `NCC1(CC(=O)O)CCCCC1` . f

Check the results log: what was the call for N#CC(O[C@@H]1O[C@H](CO[C@@H]2O[C@H](CO)[C@@H](O)[C@H](O)[C@H]2O)[C@@H](O)[C@H](O)[C@H]1O)c1ccccc1 (stereo partly drawn) ? f

Returns: the outcome recorded for `CCN1CCN(C(=O)Cc2ccc(Nc3ncc(F)c(Nc4ccc(C(=O)Nc5ccccc5Cl)cc4)n3)cc2)CC1` in this assay. t

Query: recorded result category for `Cc1sc2c(c1C)C(c1ccc(Cl)cc1)=N[C@H](CC(=O)OC(C)(C)C)c1nnc(C)n1-2` in this test f

State the result this test recorded for `CCN1C[C@]2(COC)CC[C@H](O)[C@@]34[C@@H]5C[C@H]6[C@H](OC(C)=O)[C@@H]5[C@](O)(C[C@@H]6OC)[C@H](C[C@H]23)[C@H]14` . f

Can you look up the reported call for C[C@@H]1O[C@@H](O[C@H]2C[C@@H](O)[C@]3(CO)[C@H]4[C@H](O)C[C@]5(C)[C@@H](C6=CC(=O)OC6)CC[C@]5(O)[C@@H]4CC[C@]3(O)C2)[C@H](O)[C@H](O)[C@H]1O [Strophantine octahydrate] for me? t

I'd appreciate the recorded outcome for `CC(C)c1cccc(C(C)C)c1O` from this test. f
